Entries annotated with measured IC50
Target entity: Bile salt export pump (Homo sapiens, UniProt O95342)
Sequence (O95342 whole entry): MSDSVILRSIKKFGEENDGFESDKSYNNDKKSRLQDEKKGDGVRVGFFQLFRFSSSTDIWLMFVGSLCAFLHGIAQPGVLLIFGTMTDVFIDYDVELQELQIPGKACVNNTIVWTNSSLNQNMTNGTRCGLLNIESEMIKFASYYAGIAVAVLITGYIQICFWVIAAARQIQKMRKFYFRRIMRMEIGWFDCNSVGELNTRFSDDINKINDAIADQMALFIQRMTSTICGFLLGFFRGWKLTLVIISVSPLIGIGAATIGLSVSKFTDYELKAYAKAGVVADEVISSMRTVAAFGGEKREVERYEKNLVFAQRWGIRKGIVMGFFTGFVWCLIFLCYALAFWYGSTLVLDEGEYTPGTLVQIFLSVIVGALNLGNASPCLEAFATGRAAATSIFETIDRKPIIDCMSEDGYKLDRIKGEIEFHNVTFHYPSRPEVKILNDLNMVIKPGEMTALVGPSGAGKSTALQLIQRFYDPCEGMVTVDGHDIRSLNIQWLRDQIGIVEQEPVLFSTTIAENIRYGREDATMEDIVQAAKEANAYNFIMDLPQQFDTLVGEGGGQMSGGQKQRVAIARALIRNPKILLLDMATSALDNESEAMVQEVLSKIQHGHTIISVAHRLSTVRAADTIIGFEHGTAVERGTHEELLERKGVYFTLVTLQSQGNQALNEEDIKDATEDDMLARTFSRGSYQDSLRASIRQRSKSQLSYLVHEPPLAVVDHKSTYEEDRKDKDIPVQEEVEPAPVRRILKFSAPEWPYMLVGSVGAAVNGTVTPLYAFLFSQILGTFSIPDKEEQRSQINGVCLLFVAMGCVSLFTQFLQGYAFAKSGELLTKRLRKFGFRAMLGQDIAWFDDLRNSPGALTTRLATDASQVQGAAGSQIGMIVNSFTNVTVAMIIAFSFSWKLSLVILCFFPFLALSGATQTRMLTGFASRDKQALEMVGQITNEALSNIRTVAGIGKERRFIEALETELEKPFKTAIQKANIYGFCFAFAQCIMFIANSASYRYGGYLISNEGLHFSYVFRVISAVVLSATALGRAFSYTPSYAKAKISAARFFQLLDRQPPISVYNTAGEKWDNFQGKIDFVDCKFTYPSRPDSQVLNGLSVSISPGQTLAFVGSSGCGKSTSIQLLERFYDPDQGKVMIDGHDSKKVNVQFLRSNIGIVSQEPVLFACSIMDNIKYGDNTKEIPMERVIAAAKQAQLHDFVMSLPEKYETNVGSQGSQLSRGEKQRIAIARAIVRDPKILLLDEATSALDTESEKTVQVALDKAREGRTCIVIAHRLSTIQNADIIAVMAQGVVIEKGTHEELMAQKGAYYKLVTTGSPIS
Assay: Inhibition of human BSEP overexpressed in Sf9 cell membrane vesicles assessed as uptake of [3H]-taurocholate in presence of ATP measured after 15 to 20 mins by membrane vesicle transport assay
Where a name gives a salt, the structure may show the parent alone.

Molecule	Target entity	IC50
N#Cc1ccc(C(c2ccc(C#N)cc2)n2cncn2)cc1	Bile salt export pump (Homo sapiens, UniProt O95342)	> 133 µM
C[C@](N)(Cc1ccc(O)c(O)c1)C(=O)O	Bile salt export pump (Homo sapiens, UniProt O95342)	> 133 µM
CCn1cc(C(=O)O)c(=O)c2ccc(C)nc21	Bile salt export pump (Homo sapiens, UniProt O95342)	> 133 µM
CCOc1ccc(NC(C)=O)cc1	Bile salt export pump (Homo sapiens, UniProt O95342)	> 133 µM
O=C1Cc2cc(CCN3CCN(c4nsc5ccccc45)CC3)c(Cl)cc2N1 [ZIPRASIDONE MESYLATE]	Bile salt export pump (Homo sapiens, UniProt O95342)	> 133 µM
CCOC(=O)C(C)(C)Oc1ccc(Cl)cc1 [CLOFIBRATE]	Bile salt export pump (Homo sapiens, UniProt O95342)	71 µM

Form: molecule = NS(=O)(=O)c1cc2c(cc1Cl)NCNS2(=O)=O [HYDROCHLOROTHIAZIDE] ; IC50 = > 133 µM

* * *

Assay: Drug concentration at steady state in human at 75 to 600 mg, iv QD after 24 hrs
Assay type: ADME, organism-based
Measurement context: in vivo, read-out: Css
Experimental readout: concentration at 24 h
Just so you know, I need the unit written after the number.

Query CN(C)C(=O)CCSC(SCCC(=O)O)c1cccc(/C=C/c2ccc3ccc(Cl)cc3n2)c1 (stereo unspecified) [MK-571] yields concentration at 24 h of 18.6 µM

* * *

Assay: Drug concentration at steady state in human at 10 to 20 mg, po QID after 6 hrs
Assay type: ADME, organism-based
Measurement context: in vivo, read-out: Css
Experimental readout: concentration at 6 h (nM)
Reply numerically in nM, unit not repeated.

// field: concentration at 6 h; key: COc1cc(N)c(Cl)cc1C(=O)NC1CCN(CCCOc2ccc(F)cc2)CC1OC.O (stereo unspecified) [CISAPRIDE MONOHYDRATE] ; value = 797

* * *

Target entity: Bile salt export pump (Homo sapiens)
Assay: Inhibition of human BSEP overexpressed in Sf9 cell membrane vesicles assessed as uptake of [3H]-taurocholate in presence of ATP measured after 15 to 20 mins by membrane vesicle transport assay
Structures can show the parent of a compound that is named as a salt. Positions of bridges follow the written chain, without caps; N, C: chain ends. Residues, ends and D or L forms follow the SMILES beside them.
Experimental readout: IC50

In the examples that follow, each entry is paired with its recorded IC50.
Compound	Target entity	IC50
CC(=O)CC(c1ccccc1)c1c(O)c2ccccc2oc1=O (stereo not given) [WARFARIN SODIUM]	Bile salt export pump (Homo sapiens)	> 133 µM
CC(C)Cn1cnc2c(N)nc3ccccc3c21	Bile salt export pump (Homo sapiens)	> 133 µM
c1ccc(C2(c3ccccc3)CC2C2=NCCN2)cc1 (stereo not given)	Bile salt export pump (Homo sapiens)	> 133 µM
COc1ccc(CC2c3cc(OC)c(OC)cc3CC[N+]2(C)CCC(=O)OCCCCCOC(=O)CC[N+]2(C)CCc3cc(OC)c(OC)cc3C2Cc2ccc(OC)c(OC)c2)cc1OC (stereo not given) [ATRACURIUM BESYLATE]	Bile salt export pump (Homo sapiens)	> 133 µM
OCc1cc(C(O)CNCCCCCCOCCCCc2ccccc2)ccc1O (stereo not given) [SALMETEROL XINAFOATE]	Bile salt export pump (Homo sapiens)	> 133 µM

// "CCOC(=O)[C@H](CCc1ccccc1)N[C@@H](C)C(=O)N1[C@H](C(=O)O)C[C@@H]2CCC[C@@H]21" : IC50 value = > 133 µM

For NCCCC[C@H](NC(=O)[C@@H]1CCCN1C(=O)[C@@H]1CSSC[C@H](NC(=O)CNC(=O)CNC(=O)CN)C(=O)N[C@@H](Cc2ccc(O)cc2)C(=O)N[C@@H](Cc2ccccc2)C(=O)N[C@@H](CCC(N)=O)C(=O)N[C@@H](CC(N)=O)C(=O)N1)C(=O)NCC(N)=O (H-GGGCYFQNCPKG-NH2; disulfide 4-9) the compound record lists IC50 as > 133 µM

Input CC(C)NCC(O)COc1ccc(CC(N)=O)cc1 (stereo not given) . Output IC50: > 133 µM

response.value for COc1cc2nc(N(C)CCCNC(=O)C3CCCO3)nc(N)c2cc1OC (stereo not given) [ALFUZOSIN HYDROCHLORIDE] (field: IC50) = > 133 µM

Consider "O=c1[nH]c(=O)n([C@H]2CCCO2)cc1F" . Its measured IC50 is > 133 µM

Just so you know, measured IC50 for CCCN[C@H]1CCc2nc(N)sc2C1 [PRAMIPEXOLE] came out at > 133 µM

According to the records, this compound "O=C1NCCN1CCN1CCC(c2cn(-c3ccc(F)cc3)c3ccc(Cl)cc23)CC1" displays IC50 of 82.7 µM

CC(C)C(=O)OCC(=O)[C@@]12O[C@H](C3CCCCC3)O[C@@H]1C[C@H]1[C@@H]3CCC4=CC(=O)C=C[C@]4(C)[C@H]3[C@@H](O)C[C@@]12C [CICLESONIDE] yielded IC50 of > 133 µM

Reported IC50 ( "CCCN(CCC)S(=O)(=O)c1ccc(C(=O)O)cc1" ) = > 133 µM

Looking up CC1Cc2ccccc2N1NC(=O)c1ccc(Cl)c(S(N)(=O)=O)c1 (stereo not given) [INDAPAMIDE] , I found its IC50 recorded as > 133 µM

The reported value for COCCCOc1ccnc(C[S+]([O-])c2nc3ccccc3[n-]2)c1C.[Na+] (stereo not given) [RABEPRAZOLE SODIUM] in terms of IC50 is 33.9 µM

Lab note: measured IC50 of CN(C)CCCC1(c2ccc(F)cc2)OCc2cc(C#N)ccc21 (stereo not given) was > 133 µM

In plain terms, "CC[C@H]1OC(=O)[C@H](C)[C@@H](O[C@H]2C[C@@](C)(OC)[C@@H](O)[C@H](C)O2)[C@H](C)[C@@H](O[C@@H]2O[C@H](C)C[C@H](N(C)C)[C@H]2O)[C@](C)(O)C[C@@H](C)CN(C)[C@H](C)[C@@H](O)[C@]1(C)O" has a documented IC50 of > 133 µM

* * *

Assay: Drug concentration at steady state in human at 1.5 ug administered as 1 drop intraocularly QD after 24 hrs
Assay type: ADME
Measurement context: in vivo, topical or ocular, read-out: Css
Experimental readout: concentration at 24 h (nM)
Give a bare numeral; the unit nM is implied.

// concentration at 24 h value for "CC(C)OC(=O)CCC/C=C\C[C@@H]1[C@@H](CC[C@@H](O)CCc2ccccc2)[C@H](O)C[C@@H]1O" : 2

* * *

Collected concentration at 24 h values appear next to each entry.
Assay: Drug concentration at steady state in human at 20 to 80 mg, po QD after 24 hrs
Type: ADME, organism-based
Measurement context: in vivo, read-out: Css
# number only, unit nM dropped from output

Molecule	concentration at 24 h (nM)
CCCc1nc2c(C)cc(-c3nc4ccccc4n3C)cc2n1Cc1ccc(-c2ccccc2C(=O)O)cc1	149

In the following, a different molecule is considered.
Input CC(C)n1c(/C=C/C(O)CC(O)CC(=O)O)c(-c2ccc(F)cc2)c2ccccc21 (configuration not stated) . Output concentration at 24 h: 62

* * *

Examples of compounds with documented pIC50 follow.
Target entity: ATP-binding cassette sub-family C member 4 (Homo sapiens)
Sequence (O15439 whole entry): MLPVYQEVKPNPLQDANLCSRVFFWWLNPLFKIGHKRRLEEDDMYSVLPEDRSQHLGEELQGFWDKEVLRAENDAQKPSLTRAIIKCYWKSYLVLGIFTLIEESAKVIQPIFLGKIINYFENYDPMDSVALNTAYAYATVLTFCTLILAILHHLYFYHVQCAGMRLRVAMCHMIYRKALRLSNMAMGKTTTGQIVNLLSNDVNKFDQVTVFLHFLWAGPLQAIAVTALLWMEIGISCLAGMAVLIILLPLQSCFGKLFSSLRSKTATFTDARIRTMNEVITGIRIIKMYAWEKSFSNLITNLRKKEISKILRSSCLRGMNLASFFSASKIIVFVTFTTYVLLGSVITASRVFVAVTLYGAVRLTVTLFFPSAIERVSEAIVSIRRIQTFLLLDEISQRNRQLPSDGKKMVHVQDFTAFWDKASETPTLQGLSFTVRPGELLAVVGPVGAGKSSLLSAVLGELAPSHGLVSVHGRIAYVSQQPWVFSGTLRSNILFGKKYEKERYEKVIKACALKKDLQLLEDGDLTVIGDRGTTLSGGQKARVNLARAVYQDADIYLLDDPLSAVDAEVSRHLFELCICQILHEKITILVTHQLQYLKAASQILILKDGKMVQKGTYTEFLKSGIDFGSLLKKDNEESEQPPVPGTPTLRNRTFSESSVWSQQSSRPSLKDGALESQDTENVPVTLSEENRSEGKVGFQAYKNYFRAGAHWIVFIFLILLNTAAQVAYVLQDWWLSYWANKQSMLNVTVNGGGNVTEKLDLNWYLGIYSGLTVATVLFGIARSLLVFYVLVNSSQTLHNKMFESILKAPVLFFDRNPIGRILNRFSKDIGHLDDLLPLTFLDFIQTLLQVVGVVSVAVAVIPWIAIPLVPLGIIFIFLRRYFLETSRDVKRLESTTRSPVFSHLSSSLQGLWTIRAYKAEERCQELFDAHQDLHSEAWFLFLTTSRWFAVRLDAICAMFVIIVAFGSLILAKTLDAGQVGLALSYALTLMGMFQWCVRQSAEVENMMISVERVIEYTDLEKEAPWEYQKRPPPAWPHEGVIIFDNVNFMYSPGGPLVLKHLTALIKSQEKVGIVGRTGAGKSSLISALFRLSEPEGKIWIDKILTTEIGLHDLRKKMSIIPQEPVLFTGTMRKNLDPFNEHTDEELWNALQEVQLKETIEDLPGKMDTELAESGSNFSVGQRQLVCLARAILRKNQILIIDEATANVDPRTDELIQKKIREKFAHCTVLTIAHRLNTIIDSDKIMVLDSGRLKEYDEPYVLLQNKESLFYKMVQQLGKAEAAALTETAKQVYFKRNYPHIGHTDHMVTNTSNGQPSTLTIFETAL
Assay: Inhibition of human MRP4 overexpressed in Sf9 cell membrane vesicles assessed as uptake of [3H]-estradiol-17beta-D-glucuronide in presence of ATP and GSH measured after 20 mins by membrane vesicle transport assay
pIC50: −log10 of the molar value. Counter-ions that a name gives are not always drawn.

Compound	Reported result
NCCCC(N)(C(=O)O)C(F)F (stereo not drawn) [EFLORNITHINE HYDROCHLORIDE]	< 3.88
CC[C@@H]1/C=C(\C)C[C@H](C)C[C@H](OC)[C@H]2O[C@@](O)(C(=O)C(=O)N3CCCC[C@H]3C(=O)O[C@H](/C(C)=C/[C@@H]3CC[C@H](Cl)[C@H](OC)C3)[C@H](C)[C@@H](O)CC1=O)[C@H](C)C[C@@H]2OC [PIMECROLIMUS]	< 3.88

Looking up CN1C(=O)CN=C(c2ccccc2)c2cc(Cl)ccc21 [DIAZEPAM] , I see its pIC50 listed as < 3.88

Note to self: pIC50 recorded for CNCC[C@H](Oc1cccc2ccccc12)c1cccs1 [DULOXETINE HYDROCHLORIDE] was < 3.88

Per the records, this compound ( O=C1CCc2cc(OCCCCc3nnnn3C3CCCCC3)ccc2N1 [CILOSTAZOL] ) has pIC50 equal to 4.78

Lab note: measured pIC50 of COC(=O)C1=C(C)NC(C)=C(C(=O)OC)C1c1ccccc1[N+](=O)[O-] [NIFEDIPINE] was 4.78

Lab book: pIC50 of CN(C)C(=N)N=C(N)N [METFORMIN] noted as < 3.88

Cc1cccc(Nc2ccccc2C(=O)O)c1C [MEFENAMIC ACID] has a reported pIC50 of < 3.88

Recorded values, source ChEMBL document CHEMBL4028801.
